system: huH-1 (Hepatocellular Carcinoma); assay: Bliss excess, mean over the matrix (fraction); higher = more synergy;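 further: after 72 h of two-drug dosing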
REPORTED_METRIC: Bliss excess
Returns: the value as a bare number; no unit string appended.

1) CN(CCO)CC[C@H](CSc1ccccc1)Nc1ccc(S(=O)(=O)NC(=O)c2ccc(N3CCC([C@@H](O)c4ccccc4-c4ccc(Cl)cc4)CC3)cc2)cc1S(=O)(=O)C(F)(F)F [AZD4320] + CCN(CCO)CCCOc1ccc2c(Nc3cc(CC(=O)Nc4cccc(F)c4)[nH]n3)ncnc2c1 [AZD2811] (first compound max 1 µM, 7x7, partner max 1 µM) | 0.0161

Now for the compound whose Bliss excess we want.
Req: Please indicate Bliss excess recorded for COc1nnc2ccc(N3CCC(c4ccc(OCCN5CCN(C)C(=O)[C@H]5C)cc4)CC3)nn12 [AZD5153] + C=CCn1c(=O)c2cnc(Nc3ccc(N4CCN(C)CC4)cc3)nc2n1-c1cccc(C(C)(C)O)n1 [AZD1775] (first compound max 1 µM, partner max 1 µM)
Resp: 0.024

---

Recorded Bliss excess values for a group of molecules are listed next.
system: PEO1 (Ovarian Carcinoma); test: Bliss excess, mean over the matrix (fraction); higher = more synergy
Note: the reply should be a number with no unit written.

Req: Look up and state reported Bliss excess for NC1(C(=O)N[C@@H](CCO)c2ccc(Cl)cc2)CCN(c2ncnc3[nH]ccc23)CC1 [Capivasertib] + C[C@@H]1COCCN1C2=NC(=NC(=C2)C3(CC3)[S@](=N)(=O)C)C4=C5C=CNC5=NC=C4 [AZD6738] (first compound max 10 µM, 7x7, partner max 10 µM)
Resp: -0.0225

---

List of Bliss excess values.
tested on: NCI-H1703 (Squamous Cell Lung Carcinoma); experiment: Bliss excess, mean over the matrix (fraction); higher = more synergy

1) CC(=O)c1c(C)c2cnc(Nc3ccc(N4CCNCC4)cn3)nc2n(C2CCCC2)c1=O [Palbociclib] + Cn1cnc2c(F)c(Nc3ccc(Br)cc3Cl)c(C(=O)NOCCO)cc21 [Selumetinib] (first compound max 10 µM, 7x7, partner max 10 µM) | 0.0303
2) COc1cccc(OCCCN)c1-c1cc(Nc2cnc(C#N)cn2)n[nH]1 [Prexasertib] + Cc1cc2ncnn2cc1Nc1ncc2c(n1)n(C1CCOCC1)c(=O)n2C [AZD7648] (first compound max 1 µM, 7x7, partner max 10 µM) | -0.0192
3) CC1(C)CCC(CN2CCN(c3ccc(C(=O)NS(=O)(=O)c4ccc(NCC5CCOCC5)c([N+](=O)[O-])c4)c(Oc4cnc5[nH]ccc5c4)c3)CC2)=C(c2ccc(Cl)cc2)C1 [Venetoclax] + C[C@@H](Nc1cc(F)cc(F)c1)c1cc(C(=O)N(C)C)cc2c(=O)cc(N3CCOCC3)oc12 [AZD8186] (first compound max 1 µM, 7x7, partner max 3 µM) | 0.0037

Req: For the compound Cc1cc2ncnn2cc1Nc1ncc2c(n1)n(C1CCOCC1)c(=O)n2C [AZD7648] + C[C@@H]1COCCN1C2=NC(=NC(=C2)C3(CC3)[S@](=N)(=O)C)C4=C5C=CNC5=NC=C4 [AZD6738] (first compound max 10 µM, 7x7, partner max 10 µM) , give its reported Bliss excess.
Resp: 0.0089

Req: Provide one value: measured Bliss excess of Cc1cc2ncnn2cc1Nc1ncc2c(n1)n(C1CCOCC1)c(=O)n2C [AZD7648] + C=CCn1c(=O)c2cnc(Nc3ccc(N4CCN(C)CC4)cc3)nc2n1-c1cccc(C(C)(C)O)n1 [AZD1775] (first compound max 10 µM, partner max 1 µM)
Resp: -0.0283

Req: Please indicate Bliss excess recorded for CC1(C)CCC(CN2CCN(c3ccc(C(=O)NS(=O)(=O)c4ccc(NCC5CCOCC5)c([N+](=O)[O-])c4)c(Oc4cnc5[nH]ccc5c4)c3)CC2)=C(c2ccc(Cl)cc2)C1 [Venetoclax] + Cc1cc2ncnn2cc1Nc1ncc2c(n1)n(C1CCOCC1)c(=O)n2C [AZD7648] (first compound max 1 µM, 7x7, partner max 10 µM)
Resp: 0.0396

Req: Query Bliss excess for COc1cccc(OCCCN)c1-c1cc(Nc2cnc(C#N)cn2)n[nH]1 [Prexasertib] + CCc1c2c(nc3ccc(O)cc13)-c1cc3c(c(=O)n1C2)COC(=O)[C@]3(O)CC [SN-38] (first compound max 1 µM, 7x7, partner max 0.3 µM)
Resp: -0.0374
